All values here come from paper PMC12212125.

B1: Arabidopsis thaliana cryptochrome 2 (CRY2, UniProt Q96524), residues 1-535 fused after the Gal4 DNA-binding domain (Gal4BD-CRY2(535)); mutagenized window 321-412, Q96524 (parent)
chain: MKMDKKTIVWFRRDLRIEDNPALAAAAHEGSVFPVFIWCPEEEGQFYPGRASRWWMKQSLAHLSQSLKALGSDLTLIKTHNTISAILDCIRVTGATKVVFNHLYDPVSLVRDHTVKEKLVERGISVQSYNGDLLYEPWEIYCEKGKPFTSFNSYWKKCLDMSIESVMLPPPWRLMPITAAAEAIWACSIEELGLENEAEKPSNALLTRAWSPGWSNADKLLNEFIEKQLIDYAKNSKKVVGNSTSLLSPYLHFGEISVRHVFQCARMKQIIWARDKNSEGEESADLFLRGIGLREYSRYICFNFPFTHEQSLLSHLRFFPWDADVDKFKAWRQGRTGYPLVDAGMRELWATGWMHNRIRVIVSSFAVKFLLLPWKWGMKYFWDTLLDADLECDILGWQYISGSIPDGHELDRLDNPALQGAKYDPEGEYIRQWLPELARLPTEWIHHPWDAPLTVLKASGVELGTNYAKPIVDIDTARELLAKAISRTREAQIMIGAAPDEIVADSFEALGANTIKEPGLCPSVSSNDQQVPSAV

# Variants of: B1
# test_summary: yeast two-hybrid growth selection (MaV203; Gal4BD-CRY2(1-535) library x Gal4AD-CIB1; URA3 reporter on SC -Trp/-Leu/-Ura) in the dark, deep sequencing before and after selection, Enrich2 scoring; three independent screens (one at 48 h, two …)
# protocol_conditions: with CIB1 (CRYPTOCHROME-INTERACTING BASIC-HELIX-LOOP-HELIX 1), dark (no blue light), screens 1, 3 and 4, Svar > 0 = enriched under dark selection for CRY2-CIB1 two-hybrid growth (URA3 reporter), < 0 = depleted, relative to wild type (whose scores are 0). 'The Enrich2 software calculates, parent: 0, not an affinity, scale: Enrich2 score, numbering: uniprot, sequence starts at 1
observable: enrichment
Numbers only.

Look over these answered cases.
mutant_id	enrichment
D393S	2.65
K375Q	0.228
M378I	-0.703
D326A	-0.893
G334C	0.0705
D387A	-0.921
F369V	1.03
V341G	-1.65

Working through the 3 variants below one at a time, give enrichment for each.
1. V362D
2. L340F
3. V360A

Result:
1: -1.36; 2: -1.05; 3: 0.0306
